- assayed-target: hCB1R (Homo sapiens, UniProt P21554)
- Sequence (P21554 whole entry): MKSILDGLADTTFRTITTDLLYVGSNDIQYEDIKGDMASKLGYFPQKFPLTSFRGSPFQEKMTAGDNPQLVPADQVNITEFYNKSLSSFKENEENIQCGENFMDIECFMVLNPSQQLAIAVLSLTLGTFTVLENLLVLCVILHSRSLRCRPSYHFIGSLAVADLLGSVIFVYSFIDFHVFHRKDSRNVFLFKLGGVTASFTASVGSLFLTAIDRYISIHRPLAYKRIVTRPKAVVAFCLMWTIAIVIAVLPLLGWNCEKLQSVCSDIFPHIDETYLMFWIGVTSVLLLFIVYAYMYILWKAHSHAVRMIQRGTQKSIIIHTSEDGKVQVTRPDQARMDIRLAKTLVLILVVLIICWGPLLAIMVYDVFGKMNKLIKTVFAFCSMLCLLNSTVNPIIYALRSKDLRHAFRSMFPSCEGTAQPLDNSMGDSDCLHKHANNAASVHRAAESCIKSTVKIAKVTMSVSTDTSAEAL
- test: In vitro functional assay (FLIPR, intracellular Ca2+) with recombinant HEK293 cells, CB1
- Assay type: cell-based
- Set-up: expressed in transfected cells; host or cells: HEK293
- Text: In Vitro Functional Assays with Recombinant Cells:
assay-endpoint: log10 IC50 (log10 of the value in nM)

• CC1(C)C(=O)N(c2ccc(C#N)c(C(F)(F)F)c2)C(=O)N1Cc1ccccc1Nc1ccc(C(F)(F)F)nc1 = 1.48
• CC1(C)C(=O)N(c2ccc(C#N)c(C(F)(F)F)c2)C(=O)N1Cc1ccc(C(F)(F)F)cc1Nc1ccc(Cl)cc1 = 1.56
• COc1ccc(Nc2ccccc2CN2C(=O)N(c3ccc(C#N)c(C(F)(F)F)c3)C(=O)C2(C)C)cc1 = 0.00
• CC1(C)C(=O)N(c2ccc(C#N)c(C(F)(F)F)c2)C(=O)N1Cc1ccccc1Nc1ccccc1 = 1.00
• COC(=O)c1ccc(Nc2ccccc2CN2C(=O)N(c3ccc(C#N)c(C(F)(F)F)c3)C(=O)C2(C)C)cc1 = 0.30
• CC1(C)C(=O)N(c2ccc(C#N)c(C(F)(F)F)c2)C(=O)N1Cc1ccccc1Nc1ccc(OC(F)(F)F)cc1F = 0.85
• CC1(C)C(=O)N(c2ccc(C#N)c(C(F)(F)F)c2)C(=O)N1Cc1ccc(C(F)(F)F)cc1Nc1ccc(F)cc1F = 0.90
• CC1(C)C(=O)N(c2ccc(C#N)c(C(F)(F)F)c2)C(=O)N1Cc1ccccc1Nc1ccc(CC(N)=O)cc1 = 0.85
• CC1(C)C(=O)N(c2ccc(C#N)c(C(F)(F)F)c2)C(=O)N1Cc1ccccc1Nc1ccc(C#N)cc1F = 0.85

----------
Listing: IC50 of selected compounds
- assayed-target: UniProtKB P21554
- test: In vitro functional assay (FLIPR, intracellular Ca2+) with recombinant HEK293 cells, CB1
- Format: cell-based
- Set-up: expressed in transfected cells; host or cells: HEK293
- condition-summary: recombinant HEK293 cells expressing CB1 and Galpha16; 20 min preincubation, then reference agonist; Ca2+ change; read-out: hCB1R: FLIPR; IC50
- Source text: In Vitro Functional Assays with Recombinant Cells:
assay-endpoint: IC50

* CC1(C)C(=O)N(c2ccc(C#N)c(C(F)(F)F)c2)C(=O)N1Cc1ccccc1Nc1ccc(O)nn1 | 0.023 µM
* CC(C)(C)c1cc(N2C(=O)N(Cc3ccc(F)cc3Nc3ccc(C(=O)O)cc3)C(C)(C)C2=O)ccc1C#N | 0.009 µM
* COC(=O)c1ccc(Nc2cc(Cl)cc(Cl)c2CN2C(=O)N(c3ccc(C#N)c(C(F)(F)F)c3)C(=O)C2(C)C)cc1 | 0.015 µM
* COC(=O)CN(CC(=O)OC)c1ccc(Nc2ccccc2CN2C(=O)N(c3ccc(C#N)c(C(F)(F)F)c3)C(=O)C2(C)C)cc1 | 0.004 µM
* Cc1cc(N2C(=O)N(Cc3ccc(F)cc3Nc3ccc(C(N)=O)cc3)C(C)(C)C2=O)ccc1C#N | 0.076 µM
* CC1(C)C(=O)N(c2ccc(C#N)c(C(F)(F)F)c2)C(=O)N1Cc1ccccc1Nc1ccccc1F | 0.007 µM
* CC1(C)C(=O)N(c2ccc(C#N)c(C(F)(F)F)c2)C(=O)N1Cc1ccccc1Nc1ccc(C(=O)NCCS(=O)(=O)O)cc1 | 0.137 µM

----------
- assayed-target: hCB1R (Homo sapiens, UniProt P21554)
- test: In vitro functional assay (FLIPR, intracellular Ca2+) with recombinant HEK293 cells, CB1
- Assay type: cell-based
- Design: expressed in transfected cells; host or cells: HEK293
- condition-summary: recombinant HEK293 cells expressing CB1 and Galpha16; 20 min preincubation, then reference agonist; Ca2+ change; read-out: hCB1R: FLIPR; IC50
pIC50: −log10 of the molar value. Counter-ions that a name gives are not always drawn.
Listing: pIC50 of selected molecules
assay-endpoint: pIC50

* CC1(C)C(=O)N(c2ccc(C#N)c(C(F)(F)F)c2)C(=O)N1Cc1ccccc1Nc1ccc(O)cc1 [Example 135] | 9.00
* Cc1cnccc1Nc1ccccc1CN1C(=O)N(c2ccc(C#N)c(C(F)(F)F)c2)C(=O)C1(C)C [Example 181] | 8.10
* CC1(C)C(=O)N(c2ccc(C#N)c(C(F)(F)F)c2)C(=O)N1Cc1ccccc1Nc1ccc(C#N)c(C(F)(F)F)c1 [Example 3] | 7.66
* CC1(C)C(=O)N(c2ccc(F)c(C(F)(F)F)c2)C(=O)N1Cc1ccccc1Nc1ccc(C(=N)NO)cc1 [Example 143, hydrochloride] | 7.89
* CC1(C)C(=O)N(c2ccc(F)c(C(F)(F)F)c2)C(=O)N1Cc1ccc(F)cc1Nc1ccc2c(c1)C(=O)CC2 [Example 205] | 7.77
* CC(C)(C)Oc1ncc(Nc2ccccc2CN2C(=O)N(c3ccc(C#N)c(C(F)(F)F)c3)C(=O)C2(C)C)c(OC(C)(C)C)n1 [Example 208] | 7.89
* COc1ccc(CN2C(=O)N(c3ccc(C#N)c(C(F)(F)F)c3)C(=O)C2(C)C)c(Nc2ccc(C(=O)O)cc2)c1 [Example 130] | 7.49

----------
- assayed-target: UniProt:P21554
- test: Binding to the CB1 receptor ([3H]-SR141716A displacement)
- condition-summary: CHO-K1/cannabinoid CB1 protein 2 μg/well; [3H]-SR141716A 0.5 nM; Ki from IC50 by Cheng-Prusoff; average of double determination; read-out: hCB1R; binding Ki
pKi: −log10 of the molar value.
Listing: pKi of selected compounds
assay-endpoint: pKi

* CC1(C)C(=O)N(c2ccc(C#N)c(C(F)(F)F)c2)C(=O)N1Cc1ccccc1Nc1ccc(C(=O)NN2CCCCC2)cc1 | 6.84
* CC1(C)C(=O)N(c2ccc(F)c(C(F)(F)F)c2)C(=O)N1Cc1ccc(F)cc1Nc1ccc(C(=O)N2CCC(O)CC2)cc1 | 6.92
* CC1(C)C(=O)N(c2ccc(C#N)c(-c3ccccc3)c2)C(=O)N1Cc1ccc(F)cc1Nc1ccc(C(=O)O)cc1 | 7.44
* CC1(C)C(=O)N(c2ccc(F)c(C(F)(F)F)c2)C(=O)N1Cc1ccc(F)cc1Nc1ccc(C(=O)NC[C@H](O)[C@@H](O)[C@H](O)[C@H](O)CO)cc1 | 6.95
* CC1(C)C(=O)N(c2ccc(Oc3ccc(Cl)cc3)c(C(F)(F)F)c2)C(=O)N1Cc1ccccc1Nc1ccc(F)cc1F | 7.96
* CC1(C)C(=O)N(c2ccc(F)c(C(F)(F)F)c2)C(=O)N1Cc1ccc(F)cc1Nc1ccc(C(=O)N2CCNCC2)cc1 | 8.10

----------
- assayed-target: hCB1R (Homo sapiens)
- test: Binding to the CB1 receptor ([3H]-SR141716A displacement)
- condition-summary: CHO-K1/cannabinoid CB1 protein 2 μg/well; [3H]-SR141716A 0.5 nM; Ki from IC50 by Cheng-Prusoff; average of double determination; read-out: hCB1R; binding Ki
pKi: −log10 of the molar value.
pKi below 8 gives no (0); pKi at or above it gives yes (1).

• CC1(C)C(=O)N(c2ccc(C#N)nc2)C(=O)N1Cc1ccccc1Nc1ccc(F)cc1F = no (0)
• COC(=O)c1ccc(Nc2cc(F)ccc2CN2C(=O)N(c3ccc(C#N)c(-c4ccccc4)c3)C(=O)C2(C)C)cc1 = yes (1)
• CCNS(=O)(=O)c1ccc(Nc2ccccc2CN2C(=O)N(c3ccc(C#N)c(C(F)(F)F)c3)C(=O)C2(C)C)cc1 = no (0)

----------
Listing: pKi of selected molecules
- assayed-target: hCB1R (Homo sapiens)
- test: Binding to the CB1 receptor ([3H]-SR141716A displacement)
pKi: −log10 of the molar value.
assay-endpoint: pKi

* COC(=O)c1ccc(Nc2ccccc2CN2C(=O)N(c3ccc(C#N)c(C(F)(F)F)c3)C(=O)C2(C)C)cc1OC | 7.59
* N#Cc1ccc(N2C(=O)N(Cc3ccccc3Nc3ccccc3)C3(CCCCC3)C2=O)cc1C(F)(F)F | 7.06
* CC1(C)C(=O)N(c2ccc(C#N)c(C(F)(F)F)c2)C(=O)N1Cc1ccccc1Nc1ccc(S(F)(F)(F)(F)F)cc1 | 7.41
* CCOC(=O)c1ccc(Nc2cc(C(F)(F)F)ccc2CN2C(=O)N(c3ccc(C#N)c(C(F)(F)F)c3)C(=O)C2(C)C)cc1 | 7.80
* CC1(C)C(=O)N(c2ccc(C#N)c(C(F)(F)F)c2)C(=O)N1Cc1cccc(Cl)c1Nc1ccc(F)cc1F | 9.00
* COc1ccc(Nc2ccc(Cl)cc2)c(CN2C(=O)N(c3ccc(C#N)c(C(F)(F)F)c3)C(=O)C2(C)C)c1 | 7.89
* CC1(C)C(=O)N(c2ccc(C#N)c(C(F)(F)F)c2)C(=O)N1Cc1ccccc1Nc1ccncc1 | 7.72
* COc1ccc(Nc2ccccc2CN2C(=O)N(c3ccc(C#N)c(C(F)(F)F)c3)C(=O)C2(C)C)cc1 | 9.00
* CC1(C)C(=O)N(c2ccc(C#N)c(C(F)(F)F)c2)C(=O)N1Cc1ccc(C(F)(F)F)cc1Nc1ccc(F)cc1F | 8.52
* COc1ccc(Nc2ccccc2CN2C(=O)N(c3ccc(C#N)c(C(F)(F)F)c3)C(=O)C2(C)C)nn1 | 7.80
* CC1(C)C(=O)N(c2ccc(C#N)c(C(F)(F)F)c2)C(=O)N1Cc1ccccc1Nc1ccc(C(=O)NCCO)cc1 | 8.22
* COc1ccc(Nc2ccccc2)c(CN2C(=O)N(c3ccc(C#N)c(C(F)(F)F)c3)C(=O)C2(C)C)c1 | 7.68
* CC1(C)C(=O)N(c2ccc(C#N)c(C(F)(F)F)c2)C(=O)N1Cc1cc(C(F)(F)F)ccc1Nc1ccc(F)cc1 | 8.52
* CC1(C)C(=O)N(c2ccc(C#N)c(C(F)(F)F)c2)C(=O)N1Cc1ccccc1Nc1ccc2c(c1)OC(F)(F)O2 | 8.52
* CC1(C)C(=O)N(c2ccc(C#N)c(C(F)(F)F)c2)C(=O)N1Cc1ccccc1Nc1ccc(S(C)(=O)=O)cc1 | 7.77
* CC1(C)C(=O)N(c2ccc(C#N)c(C(F)(F)F)c2)C(=O)N1Cc1cc(F)ccc1Nc1ccc(F)cc1 | 8.70
* CC1(C)C(=O)N(c2ccc(C#N)c(C(F)(F)F)c2)C(=O)N1Cc1cc(F)ccc1Nc1ccc(Cl)cc1 | 8.70
* CC1(C)C(=O)N(c2ccc(C#N)c(C(F)(F)F)c2)C(=O)N1Cc1ccc(C#N)cc1Nc1ccc(C(=O)O)cc1 | 8.22
* CC1(C)C(=O)N(c2ccc(F)c(C(F)(F)F)c2)C(=O)N1Cc1ccccc1Nc1ccccc1 | 8.00
* COc1ccc(Nc2ccc(F)cc2)c(CN2C(=O)N(c3ccc(C#N)c(C(F)(F)F)c3)C(=O)C2(C)C)c1 | 7.82
* COC(=O)c1ccc(Nc2cc(F)ccc2CN2C(=O)N(c3ccc(C#N)c(C(C)(C)C)c3)C(=O)C2(C)C)cc1 | 8.30
* CC1(C)C(=O)N(c2ccc(F)c(C(F)(F)F)c2)C(=O)N1Cc1ccccc1Nc1ccc(C#N)cc1 | 8.40
* CC1(C)C(=O)N(c2ccc(C#N)c(C(F)(F)F)c2)C(=O)N1Cc1ccccc1Nc1ccc(Cl)cc1Cl | 9.05
* CC1(C)C(=O)N(c2ccc(C#N)c(C(F)(F)F)c2)C(=O)N1Cc1ccccc1Nc1ccc(F)cc1C#N | 8.70
* COC(=O)c1ccc(Nc2cc(OC)ccc2CN2C(=O)N(c3ccc(C#N)c(C(F)(F)F)c3)C(=O)C2(C)C)cc1 | 8.30
* COC(=O)c1ccc(Nc2cc(F)ccc2CN2C(=O)N(c3ccc(C#N)c(C(F)(F)F)c3)C(=O)C2(C)C)cc1 | 9.00
* CC1(C)C(=O)N(c2ccc(C#N)c(C(F)(F)F)c2)C(=O)N1Cc1ccccc1Nc1ccc(OC(F)(F)F)cc1 | 9.05
* CC1(C)C(=O)N(c2ccc(C#N)c(C(F)(F)F)c2)C(=O)N1Cc1ccccc1Nc1cccc(S(N)(=O)=O)c1 | 7.70
